Origin of the recorded values: PubChem BioAssay AID1963834

- System: 873145-292-R-J1-PDC complex spheroid viability
- experiment: Anticancer human tumor 873145-292-R-J1-PDC patient-derived renal clear cell carcinoma cell line growth inhibition [POLQ]
- test settings: second compound 0.316 µM; first compound 0.001 µM; active compounds read low
Some molecules, each annotated with its measured viability, T/C.

Some entries whose results are on file:
molecule	viability, T/C
CC[C@@]1(O)C(=O)OCc2c1cc1n(c2=O)Cc2cc3c(CN(C)C)c(O)ccc3nc2-1 + COC1C(OC(N)=O)C(O)C(Oc2ccc3c(O)c(NC(=O)c4ccc(O)c(CC=C(C)C)c4)c(=O)oc3c2C)OC1(C)C	89.3%
Cn1ncnc1[C@H]1c2n[nH]c(=O)c3cc(F)cc(c23)N[C@@H]1c1ccc(F)cc1 + Nc1ccc(C#CCN(C(=O)Cc2ncc(C(F)(F)F)cc2C(F)(F)F)c2ccc(F)cc2)nn1	108%

Param item = Cn1ncnc1[C@H]1c2n[nH]c(=O)c3cc(F)cc(c23)N[C@@H]1c1ccc(F)cc1 + Cc1cccc(N(C)C(=O)C2C(O)CCN2c2nc(C)cc(C(F)(F)F)c2C#N)c1 ; retrieve measured viability, T/C. 99%

Param item = Cn1ncnc1[C@H]1c2n[nH]c(=O)c3cc(F)cc(c23)N[C@@H]1c1ccc(F)cc1 + COC1C(OC(N)=O)C(O)C(Oc2ccc3c(O)c(NC(=O)c4ccc(O)c(CC=C(C)C)c4)c(=O)oc3c2C)OC1(C)C ; retrieve measured viability, T/C. 98.7%

Param item = CC[C@@]1(O)C(=O)OCc2c1cc1n(c2=O)Cc2cc3c(CN(C)C)c(O)ccc3nc2-1 + Cc1cccc(N(C)C(=O)C2C(O)CCN2c2nc(C)cc(C(F)(F)F)c2C#N)c1 ; retrieve measured viability, T/C. 113%

Param item = CC[C@@]1(O)C(=O)OCc2c1cc1n(c2=O)Cc2cc3c(CN(C)C)c(O)ccc3nc2-1 + Nc1ccc(C#CCN(C(=O)Cc2ncc(C(F)(F)F)cc2C(F)(F)F)c2ccc(F)cc2)nn1 ; retrieve measured viability, T/C. 105%

----------
- Test system: 873145-292-R-J1-PDC complex spheroid viability
- experiment: Anticancer human tumor 873145-292-R-J1-PDC cell line growth inhibition [POLQ];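 also: luminescence signal used as surrogate for viable cell content; spheroids exposed to compounds for 7 days before viability readout; 100% = DMSO vehicle control viability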
- test settings: second compound 3.16 µM; first compound 0.0316 µM; active compounds read low
Some compounds, each annotated with its measured viability, T/C.
Quick note: give the figure in %, leave out the unit.

Some entries whose results are on file:
compound	result units	viability, T/C
Cn1ncnc1[C@H]1c2n[nH]c(=O)c3cc(F)cc(c23)N[C@@H]1c1ccc(F)cc1 + Cc1cccc(N(C)C(=O)C2C(O)CCN2c2nc(C)cc(C(F)(F)F)c2C#N)c1	%	99.8
COc1cccc2c1C(=O)c1c(O)c3c(c(O)c1C2=O)CC(O)(C(=O)CO)CC3OC1CC(N)C(O)C(C)O1 (stereo unspecified) + Cc1cccc(N(C)C(=O)C2C(O)CCN2c2nc(C)cc(C(F)(F)F)c2C#N)c1	%	91.1
O=c1[nH]cc(F)c(=O)[nH]1 + Nc1ccc(C#CCN(C(=O)Cc2ncc(C(F)(F)F)cc2C(F)(F)F)c2ccc(F)cc2)nn1	%	118

Param item = CC1COCCN1c1cc(C2(O)CC3CCC(C2)O3)c2cnn(-c3ccn[nH]3)c2n1 (stereo unspecified) + Cc1cccc(N(C)C(=O)C2C(O)CCN2c2nc(C)cc(C(F)(F)F)c2C#N)c1 ; retrieve measured viability, T/C. 90.1

Param item = CC1COCCN1c1cc(C2(S(C)(=N)=O)CC2)nc(-c2ccnc3[nH]ccc23)n1 (stereo unspecified) + Nc1ccc(C#CCN(C(=O)Cc2ncc(C(F)(F)F)cc2C(F)(F)F)c2ccc(F)cc2)nn1 ; retrieve measured viability, T/C. 92.2
